Hey, just so you know, these numbers are from the kinase profiling compilation of Christmann-Franck et al. (2016).

- Tested on: PIK3CA (human), P42336 [E545A]
- Procedure text: KINOMEscan competition binding
- Run parameters: compound 10.0 µM
kinase still bound, per cent of control values by entry
Reported property: kinase still bound, per cent of control (%)

INSERT INTO assay_data (item_smiles, reported_property, reported_result) VALUES
  ('COc1ccc(CNC(=O)Nc2ncc([N+](=O)[O-])s2)cc1', 'kinase still bound, per cent of control', 94),
  ('Cn1cc(C2=C(c3ccc(Cl)cc3Cl)C(=O)NC2=O)c2ccccc21', 'kinase still bound, per cent of control', 100),
  ('O=C1Nc2cc(Br)ccc2/C1=C1/Nc2ccccc2/C1=N\O', 'kinase still bound, per cent of control', 100),
  ('Cc1cnc(-c2cnc(NCCNc3ccc(C#N)cn3)nc2-c2ccc(Cl)cc2Cl)[nH]1', 'kinase still bound, per cent of control', 100);

---

- Target under test: RPS6KA5 KD2 (human) (UniProt O75582)
- Sequence (O75582 whole entry, looked up): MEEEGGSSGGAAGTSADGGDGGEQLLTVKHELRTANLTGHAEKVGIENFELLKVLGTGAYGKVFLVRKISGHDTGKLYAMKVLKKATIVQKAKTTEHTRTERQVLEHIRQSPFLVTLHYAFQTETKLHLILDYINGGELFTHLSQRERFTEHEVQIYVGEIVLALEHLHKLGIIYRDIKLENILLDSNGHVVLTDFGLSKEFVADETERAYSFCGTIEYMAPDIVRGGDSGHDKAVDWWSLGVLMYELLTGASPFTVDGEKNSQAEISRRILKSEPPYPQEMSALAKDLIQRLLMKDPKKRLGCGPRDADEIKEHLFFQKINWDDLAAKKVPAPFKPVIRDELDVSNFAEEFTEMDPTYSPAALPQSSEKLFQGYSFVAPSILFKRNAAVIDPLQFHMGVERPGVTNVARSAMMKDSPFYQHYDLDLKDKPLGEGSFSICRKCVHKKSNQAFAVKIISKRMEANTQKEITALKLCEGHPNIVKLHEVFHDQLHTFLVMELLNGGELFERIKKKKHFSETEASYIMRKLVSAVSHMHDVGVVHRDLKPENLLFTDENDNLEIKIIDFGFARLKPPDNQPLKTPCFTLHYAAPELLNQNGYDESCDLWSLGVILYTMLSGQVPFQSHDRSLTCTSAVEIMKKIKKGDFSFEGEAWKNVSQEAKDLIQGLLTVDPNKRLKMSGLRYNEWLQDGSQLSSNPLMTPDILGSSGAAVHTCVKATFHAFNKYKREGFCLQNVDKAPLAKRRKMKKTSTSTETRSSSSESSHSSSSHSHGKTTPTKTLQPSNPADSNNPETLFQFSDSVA
- Procedure text: KINOMEscan competition binding
- Run parameters: compound 10.0 µM
Reported property: kinase still bound, per cent of control (%)

INSERT INTO results (item_smiles, target_under_test, reported_result) VALUES
  ('COc1ccc(CNC(=O)Nc2ncc([N+](=O)[O-])s2)cc1', 'RPS6KA5 KD2 (human) (UniProt O75582)', 100),
  ('Cn1cc(C2=C(c3ccc(Cl)cc3Cl)C(=O)NC2=O)c2ccccc21', 'RPS6KA5 KD2 (human) (UniProt O75582)', 100),
  ('Cc1cnc(-c2cnc(NCCNc3ccc(C#N)cn3)nc2-c2ccc(Cl)cc2Cl)[nH]1', 'RPS6KA5 KD2 (human) (UniProt O75582)', 100),
  ('O=C1Nc2cc(Br)ccc2/C1=C1/Nc2ccccc2/C1=N\O', 'RPS6KA5 KD2 (human) (UniProt O75582)', 75);

---

- Target under test: BTK (human)
- Procedure text: KINOMEscan competition binding
- Run parameters: compound 10.0 µM
Reported property: kinase still bound, per cent of control (%)

INSERT INTO assay_data (item_smiles, target_under_test, output_unit, reported_result) VALUES
  ('O=C1Nc2cc(Br)ccc2/C1=C1/Nc2ccccc2/C1=N\O', 'BTK (human)', '%', 38),
  ('Cn1cc(C2=C(c3ccc(Cl)cc3Cl)C(=O)NC2=O)c2ccccc21', 'BTK (human)', '%', 100),
  ('Cc1cnc(-c2cnc(NCCNc3ccc(C#N)cn3)nc2-c2ccc(Cl)cc2Cl)[nH]1', 'BTK (human)', '%', 100),
  ('COc1ccc(CNC(=O)Nc2ncc([N+](=O)[O-])s2)cc1', 'BTK (human)', '%', 100);

---

kinase still bound, per cent of control values by entry
- Target under test: DAPK3 (human) (UniProt O43293)
- Procedure text: KINOMEscan competition binding
- Run parameters: compound 10.0 µM
Reported property: kinase still bound, per cent of control (%)

INSERT INTO measurements (item_smiles, reported_property, reported_result) VALUES
  ('COc1ccc(CNC(=O)Nc2ncc([N+](=O)[O-])s2)cc1', 'kinase still bound, per cent of control', 81),
  ('Cn1cc(C2=C(c3ccc(Cl)cc3Cl)C(=O)NC2=O)c2ccccc21', 'kinase still bound, per cent of control', 69),
  ('O=C1Nc2cc(Br)ccc2/C1=C1/Nc2ccccc2/C1=N\O', 'kinase still bound, per cent of control', 2.7),
  ('Cc1cnc(-c2cnc(NCCNc3ccc(C#N)cn3)nc2-c2ccc(Cl)cc2Cl)[nH]1', 'kinase still bound, per cent of control', 83);

---

- Target under test: JAK2 JH1 catalytic (human) (UniProt O60674)
- Sequence (O60674 whole entry, looked up): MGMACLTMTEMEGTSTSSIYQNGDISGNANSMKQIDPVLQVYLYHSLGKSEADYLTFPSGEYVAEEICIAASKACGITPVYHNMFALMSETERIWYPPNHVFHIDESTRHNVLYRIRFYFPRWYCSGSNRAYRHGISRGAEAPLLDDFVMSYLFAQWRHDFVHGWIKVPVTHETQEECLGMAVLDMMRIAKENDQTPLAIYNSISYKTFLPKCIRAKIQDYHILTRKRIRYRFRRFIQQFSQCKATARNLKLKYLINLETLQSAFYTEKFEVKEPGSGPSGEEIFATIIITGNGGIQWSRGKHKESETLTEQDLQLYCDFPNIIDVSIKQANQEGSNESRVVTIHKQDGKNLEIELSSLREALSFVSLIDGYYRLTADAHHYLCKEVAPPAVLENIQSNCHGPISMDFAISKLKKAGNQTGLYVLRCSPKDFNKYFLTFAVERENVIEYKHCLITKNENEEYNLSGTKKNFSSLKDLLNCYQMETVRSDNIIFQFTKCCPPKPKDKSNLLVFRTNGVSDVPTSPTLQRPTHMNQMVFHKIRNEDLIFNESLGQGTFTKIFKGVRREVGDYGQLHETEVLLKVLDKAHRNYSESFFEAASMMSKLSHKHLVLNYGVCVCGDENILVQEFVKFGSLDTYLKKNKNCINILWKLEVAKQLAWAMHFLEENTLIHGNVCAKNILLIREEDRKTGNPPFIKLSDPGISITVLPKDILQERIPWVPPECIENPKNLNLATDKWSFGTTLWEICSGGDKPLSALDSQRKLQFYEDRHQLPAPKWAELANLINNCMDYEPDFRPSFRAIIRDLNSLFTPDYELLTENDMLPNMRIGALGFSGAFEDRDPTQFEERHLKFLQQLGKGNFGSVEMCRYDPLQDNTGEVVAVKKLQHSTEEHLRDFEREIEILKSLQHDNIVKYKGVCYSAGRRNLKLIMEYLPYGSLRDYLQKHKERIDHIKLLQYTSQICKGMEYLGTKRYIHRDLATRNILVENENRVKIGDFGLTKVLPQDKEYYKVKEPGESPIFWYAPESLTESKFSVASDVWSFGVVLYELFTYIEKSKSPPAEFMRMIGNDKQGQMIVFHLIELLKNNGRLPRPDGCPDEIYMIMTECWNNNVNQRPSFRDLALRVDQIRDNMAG
- Procedure text: KINOMEscan competition binding
- Run parameters: compound 10.0 µM
kinase still bound, per cent of control values by entry
Reported property: kinase still bound, per cent of control (%)

INSERT INTO results (item_smiles, reported_result) VALUES
  ('COc1ccc(CNC(=O)Nc2ncc([N+](=O)[O-])s2)cc1', 100),
  ('Cc1cnc(-c2cnc(NCCNc3ccc(C#N)cn3)nc2-c2ccc(Cl)cc2Cl)[nH]1', 100),
  ('Cn1cc(C2=C(c3ccc(Cl)cc3Cl)C(=O)NC2=O)c2ccccc21', 96),
  ('O=C1Nc2cc(Br)ccc2/C1=C1/Nc2ccccc2/C1=N\O', 25);

---

- Target under test: UniProt:O43353
- Sequence (O43353 whole entry, looked up): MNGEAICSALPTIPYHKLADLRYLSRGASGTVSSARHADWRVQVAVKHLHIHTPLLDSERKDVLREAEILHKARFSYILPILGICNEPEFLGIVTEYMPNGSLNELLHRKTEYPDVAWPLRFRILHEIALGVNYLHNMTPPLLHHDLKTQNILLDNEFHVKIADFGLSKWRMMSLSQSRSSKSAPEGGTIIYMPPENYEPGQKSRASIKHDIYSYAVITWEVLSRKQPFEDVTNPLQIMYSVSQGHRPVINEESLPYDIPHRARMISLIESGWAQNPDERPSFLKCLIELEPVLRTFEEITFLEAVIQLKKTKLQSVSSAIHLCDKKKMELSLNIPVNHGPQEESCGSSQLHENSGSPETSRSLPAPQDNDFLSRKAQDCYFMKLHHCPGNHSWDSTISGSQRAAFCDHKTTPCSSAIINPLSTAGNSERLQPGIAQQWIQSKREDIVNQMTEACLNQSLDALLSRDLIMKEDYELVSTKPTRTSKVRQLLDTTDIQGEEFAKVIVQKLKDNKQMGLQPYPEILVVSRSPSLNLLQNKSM
- Procedure text: KINOMEscan competition binding
- Run parameters: compound 10.0 µM
Reported property: kinase still bound, per cent of control

INSERT INTO measurements (item_smiles, reported_result) VALUES
  ('COc1ccc(CNC(=O)Nc2ncc([N+](=O)[O-])s2)cc1', '95%'),
  ('Cc1cnc(-c2cnc(NCCNc3ccc(C#N)cn3)nc2-c2ccc(Cl)cc2Cl)[nH]1', '100%'),
  ('Cn1cc(C2=C(c3ccc(Cl)cc3Cl)C(=O)NC2=O)c2ccccc21', '94%'),
  ('O=C1Nc2cc(Br)ccc2/C1=C1/Nc2ccccc2/C1=N\O', '69%');

---

kinase still bound, per cent of control values by entry
- Target under test: UniProt Q9UKI8
- Sequence (Q9UKI8 whole entry, looked up): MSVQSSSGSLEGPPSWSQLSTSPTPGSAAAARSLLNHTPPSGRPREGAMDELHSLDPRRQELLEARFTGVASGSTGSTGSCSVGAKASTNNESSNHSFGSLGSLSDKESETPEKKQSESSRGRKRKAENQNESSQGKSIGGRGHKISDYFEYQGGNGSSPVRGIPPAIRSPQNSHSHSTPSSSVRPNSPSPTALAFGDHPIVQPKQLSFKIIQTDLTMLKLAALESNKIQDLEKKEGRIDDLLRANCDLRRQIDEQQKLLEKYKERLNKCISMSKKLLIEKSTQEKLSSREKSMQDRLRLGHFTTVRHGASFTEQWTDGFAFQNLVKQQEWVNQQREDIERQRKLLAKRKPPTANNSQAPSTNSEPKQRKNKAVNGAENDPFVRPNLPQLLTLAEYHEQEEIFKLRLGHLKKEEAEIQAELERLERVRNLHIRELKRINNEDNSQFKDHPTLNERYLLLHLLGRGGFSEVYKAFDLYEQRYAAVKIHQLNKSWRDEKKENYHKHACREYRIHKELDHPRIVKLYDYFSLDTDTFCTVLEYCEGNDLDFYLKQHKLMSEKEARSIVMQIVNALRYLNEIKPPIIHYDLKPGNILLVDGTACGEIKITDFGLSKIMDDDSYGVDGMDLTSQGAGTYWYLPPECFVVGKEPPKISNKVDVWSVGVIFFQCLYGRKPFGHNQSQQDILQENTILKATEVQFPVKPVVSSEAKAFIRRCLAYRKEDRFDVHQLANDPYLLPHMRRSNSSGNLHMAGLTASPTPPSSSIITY
- Procedure text: KINOMEscan competition binding
- Run parameters: compound 10.0 µM
Reported property: kinase still bound, per cent of control

INSERT INTO measurements (item_smiles, reported_result) VALUES
  ('Cn1cc(C2=C(c3ccc(Cl)cc3Cl)C(=O)NC2=O)c2ccccc21', '36%'),
  ('COc1ccc(CNC(=O)Nc2ncc([N+](=O)[O-])s2)cc1', '96%'),
  ('Cc1cnc(-c2cnc(NCCNc3ccc(C#N)cn3)nc2-c2ccc(Cl)cc2Cl)[nH]1', '75%'),
  ('O=C1Nc2cc(Br)ccc2/C1=C1/Nc2ccccc2/C1=N\O', '47%');

---

- Target under test: UniProt:Q9UEE5
- Procedure text: KINOMEscan competition binding
- Run parameters: compound 10.0 µM
kinase still bound, per cent of control values by entry
Reported property: kinase still bound, per cent of control (%)

INSERT INTO measurements (item_smiles, reported_property, reported_result) VALUES
  ('Cn1cc(C2=C(c3ccc(Cl)cc3Cl)C(=O)NC2=O)c2ccccc21', 'kinase still bound, per cent of control', 16),
  ('O=C1Nc2cc(Br)ccc2/C1=C1/Nc2ccccc2/C1=N\O', 'kinase still bound, per cent of control', 0),
  ('Cc1cnc(-c2cnc(NCCNc3ccc(C#N)cn3)nc2-c2ccc(Cl)cc2Cl)[nH]1', 'kinase still bound, per cent of control', 85),
  ('COc1ccc(CNC(=O)Nc2ncc([N+](=O)[O-])s2)cc1', 'kinase still bound, per cent of control', 80);

---

kinase still bound, per cent of control values by entry
- Target under test: MAP4K3 (human) (UniProt Q8IVH8)
- Sequence (Q8IVH8 whole entry, looked up): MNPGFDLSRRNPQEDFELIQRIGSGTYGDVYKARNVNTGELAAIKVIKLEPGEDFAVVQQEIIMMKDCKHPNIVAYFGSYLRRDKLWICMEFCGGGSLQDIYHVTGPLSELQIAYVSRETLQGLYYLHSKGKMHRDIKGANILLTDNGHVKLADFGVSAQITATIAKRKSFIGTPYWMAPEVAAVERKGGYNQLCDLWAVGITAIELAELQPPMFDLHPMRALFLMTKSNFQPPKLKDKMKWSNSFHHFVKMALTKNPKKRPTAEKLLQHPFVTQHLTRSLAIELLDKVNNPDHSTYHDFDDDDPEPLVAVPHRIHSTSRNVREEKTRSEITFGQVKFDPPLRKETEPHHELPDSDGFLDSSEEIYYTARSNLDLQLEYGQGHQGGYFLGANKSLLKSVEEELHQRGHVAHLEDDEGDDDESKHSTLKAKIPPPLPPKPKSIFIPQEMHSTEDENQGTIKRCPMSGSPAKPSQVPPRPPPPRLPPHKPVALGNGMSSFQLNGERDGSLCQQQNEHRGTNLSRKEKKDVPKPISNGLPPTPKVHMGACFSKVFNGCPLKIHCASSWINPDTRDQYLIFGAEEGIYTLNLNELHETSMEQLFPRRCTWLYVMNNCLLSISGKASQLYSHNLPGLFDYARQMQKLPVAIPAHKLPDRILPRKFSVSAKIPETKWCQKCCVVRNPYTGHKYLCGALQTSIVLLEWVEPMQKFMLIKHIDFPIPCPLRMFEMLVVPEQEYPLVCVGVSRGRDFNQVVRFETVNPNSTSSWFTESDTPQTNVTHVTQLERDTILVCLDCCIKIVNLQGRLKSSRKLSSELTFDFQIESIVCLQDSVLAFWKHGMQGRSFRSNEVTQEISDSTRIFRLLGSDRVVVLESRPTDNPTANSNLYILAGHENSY
- Procedure text: KINOMEscan competition binding
- Run parameters: compound 10.0 µM
Reported property: kinase still bound, per cent of control (%)

INSERT INTO results (item_smiles, reported_result) VALUES
  ('Cn1cc(C2=C(c3ccc(Cl)cc3Cl)C(=O)NC2=O)c2ccccc21', 70),
  ('O=C1Nc2cc(Br)ccc2/C1=C1/Nc2ccccc2/C1=N\O', 24),
  ('Cc1cnc(-c2cnc(NCCNc3ccc(C#N)cn3)nc2-c2ccc(Cl)cc2Cl)[nH]1', 96),
  ('COc1ccc(CNC(=O)Nc2ncc([N+](=O)[O-])s2)cc1', 90);

---

kinase still bound, per cent of control values by entry
- Target under test: PIM3 (human)
- Procedure text: KINOMEscan competition binding
- Run parameters: compound 10.0 µM
Reported property: kinase still bound, per cent of control (%)

INSERT INTO measurements (item_smiles, reported_result) VALUES
  ('Cn1cc(C2=C(c3ccc(Cl)cc3Cl)C(=O)NC2=O)c2ccccc21', 18),
  ('Cc1cnc(-c2cnc(NCCNc3ccc(C#N)cn3)nc2-c2ccc(Cl)cc2Cl)[nH]1', 95),
  ('COc1ccc(CNC(=O)Nc2ncc([N+](=O)[O-])s2)cc1', 83),
  ('O=C1Nc2cc(Br)ccc2/C1=C1/Nc2ccccc2/C1=N\O', 30);

---

- Target under test: PDPK1 (human) (UniProt O15530)
- Sequence (O15530 whole entry, looked up): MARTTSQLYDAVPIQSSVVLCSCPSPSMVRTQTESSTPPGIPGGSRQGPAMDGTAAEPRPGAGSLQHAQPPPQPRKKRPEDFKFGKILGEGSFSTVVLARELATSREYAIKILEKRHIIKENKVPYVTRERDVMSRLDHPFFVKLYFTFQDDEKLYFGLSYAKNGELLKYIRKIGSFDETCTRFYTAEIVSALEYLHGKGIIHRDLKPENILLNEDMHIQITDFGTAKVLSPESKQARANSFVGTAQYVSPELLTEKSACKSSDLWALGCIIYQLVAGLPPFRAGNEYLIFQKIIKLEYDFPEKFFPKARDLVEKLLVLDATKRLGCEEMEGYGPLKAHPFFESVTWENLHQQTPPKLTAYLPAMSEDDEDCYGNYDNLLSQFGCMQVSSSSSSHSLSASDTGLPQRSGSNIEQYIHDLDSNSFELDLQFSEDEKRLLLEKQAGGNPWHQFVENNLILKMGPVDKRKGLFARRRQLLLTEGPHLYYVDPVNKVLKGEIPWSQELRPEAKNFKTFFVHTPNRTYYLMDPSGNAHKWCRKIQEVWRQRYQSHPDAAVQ
- Procedure text: KINOMEscan competition binding
- Run parameters: compound 10.0 µM
Reported property: kinase still bound, per cent of control (%)

INSERT INTO measurements (item_smiles, target_under_test, output_unit, reported_result) VALUES
  ('COc1ccc(CNC(=O)Nc2ncc([N+](=O)[O-])s2)cc1', 'PDPK1 (human) (UniProt O15530)', '%', 78),
  ('Cc1cnc(-c2cnc(NCCNc3ccc(C#N)cn3)nc2-c2ccc(Cl)cc2Cl)[nH]1', 'PDPK1 (human) (UniProt O15530)', '%', 99),
  ('Cn1cc(C2=C(c3ccc(Cl)cc3Cl)C(=O)NC2=O)c2ccccc21', 'PDPK1 (human) (UniProt O15530)', '%', 100),
  ('O=C1Nc2cc(Br)ccc2/C1=C1/Nc2ccccc2/C1=N\O', 'PDPK1 (human) (UniProt O15530)', '%', 20);
